All figures here come from ChEMBL document CHEMBL3351678.

test: Glutathione reactivity at 1 mM in presence of 1 mM glutathione containing PBS and 1 mM EDTA buffer at pH 7.4 assessed as remaining GSH level after 10 seconds by spectrophotometry by Ellman's method
Assign labels as follows, please: satisfied for Activity below 40%; not satisfied for Activity equal to or exceeding 40%.

Would you please look over these solved cases?
| recordSmiles | discreteLabel |
| --- | --- |
| O=C1C=CC(=O)c2ccccc21 | not satisfied |
| O=C1C=CC(=O)c2c(O)ccc(O)c21 | not satisfied |
| O=C1C=CC(=O)c2c(O)cccc21 | not satisfied |
| CC1=CC(=O)C=C(C)C1=O | satisfied |
| O=C1C=C(Cl)C(=O)C=C1Cl | satisfied |

## Input Find out if reported Activity for O=C1C=CC(=O)c2cc(O)ccc21 is less than 40%
## Output not satisfied

## Input Find out if reported Activity for COC1=CC(=O)C(OC)=C(c2ccc(C)cc2)C1=O is less than 40%
## Output not satisfied

## Input Find out if reported Activity for O=C1C=CC(=O)C=C1 is less than 40%
## Output satisfied

* * *

molecular target: Botulinum neurotoxin type A (Clostridium botulinum)
recordedEndpoint: pKi
Quick note: pKi values are minus log10 of concentrations in mol/L.

Here ONCC12CC3CC(CC(C3)C1)C2 was tested on Botulinum neurotoxin type A (Clostridium botulinum), and its pKi came to 6.34

* * *

biological target: Botulinum neurotoxin type A (Clostridium botulinum) (UniProt P0DPI0); experiment: Inhibition of recombinant Clostridium botulinum neurotoxin serotype A light chain assessed as Kinact to KI ratio at 50 uM after 1.5 hrs by SNAPtide FRET based assay
# log10 of Ratio annotations
Friendly reminder: values = log10 of Ratio, unit M⁻¹ s⁻¹.

| recordSmiles | measuredResult |
| --- | --- |
| COC1=CC(=O)C(OC)=C(c2ccc(C)cc2)C1=O | -0.09 |
| COC1=C(c2ccc(C)cc2)C(=O)C=CC1=O | 0.98 |
| CC1=CC(=O)C(C(C)C)=CC1=O | -0.42 |
| CC1=CC(=O)c2ccccc2C1=O | 0.04 |
| O=C1C=CC(=O)C(Cl)=C1 | 1.71 |
| O=C1C=CC(=O)C=C1 | 1.23 |
| O=C1C=CC(=O)c2ccccc21 | 0.30 |
| COc1cccc2c1C(=O)C=CC2=O | 0.00 |

Kindly note the recorded log10 of Ratio for O=C1C=CC(=O)c2c(O)cccc21 , which is 0.72

Kindly note the recorded log10 of Ratio for O=C1C=CC(=O)C(c2ccccc2)=C1 , which is 0.99

Kindly note the recorded log10 of Ratio for COC1=CC(=O)C=CC1=O , which is 0.61

Kindly note the recorded log10 of Ratio for O=C1C=CC(=O)c2c(OCc3ccccc3)cccc21 , which is 0.30

Kindly note the recorded log10 of Ratio for O=C1C=CC(=O)C(c2ccc(I)cc2)=C1 , which is 1.00

* * *

# IC50 annotations
molecular target: Botulinum neurotoxin type A (Clostridium botulinum); assay: Competitive inhibition of recombinant Clostridium botulinum neurotoxin serotype A light chain assessed as reduction in initial rates of BoNT/A LC activity by SNAPtide FRET based assay
// units = µM; emit number, no label

| recordSmiles | subjectOfTest | IC50 [µM] |
| --- | --- | --- |
| NCC(=O)Nc1ccc(Oc2ccccc2)cc1 | Botulinum neurotoxin type A (Clostridium botulinum) | 163 |

Kindly note the recorded IC50 for ONCC12CC3CC(CC(C3)C1)C2 , which is 1.6

* * *

# IC50 annotations
target: Botulinum neurotoxin type A (Clostridium botulinum, UniProt P0DPI0); test: Competitive inhibition of recombinant Clostridium botulinum neurotoxin serotype A light chain assessed as [13C]-labeled 9-mer cleavage product formation using 66-mer substrate after 25 mins by LC-MS method; conditions: read-out: IC50
Sequence (P0DPI0 2-448 limits assumed): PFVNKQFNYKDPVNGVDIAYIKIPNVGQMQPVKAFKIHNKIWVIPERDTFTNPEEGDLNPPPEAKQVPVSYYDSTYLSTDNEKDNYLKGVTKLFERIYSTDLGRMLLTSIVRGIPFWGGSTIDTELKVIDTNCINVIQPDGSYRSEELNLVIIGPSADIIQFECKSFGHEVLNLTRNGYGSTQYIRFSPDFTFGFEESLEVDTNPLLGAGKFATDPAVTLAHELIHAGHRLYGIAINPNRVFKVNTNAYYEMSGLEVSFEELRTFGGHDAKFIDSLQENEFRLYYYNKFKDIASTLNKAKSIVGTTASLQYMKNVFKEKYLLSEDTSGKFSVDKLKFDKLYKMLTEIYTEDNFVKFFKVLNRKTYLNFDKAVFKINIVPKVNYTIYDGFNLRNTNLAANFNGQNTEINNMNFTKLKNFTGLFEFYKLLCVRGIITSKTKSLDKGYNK
// units = µM; emit number, no label

| recordSmiles | IC50 (µM) |
| --- | --- |
| NCC(=O)Nc1ccc(Oc2ccccc2)cc1 | 120 |
| O=C1C=CC(=O)C(CC(=O)O)=C1 | 9.3 |

Could you now consider this next compound?
Here NCC(=O)Nc1cccc(OCc2ccccc2)c1 was tested on Botulinum neurotoxin type A (Clostridium botulinum, UniProt P0DPI0), and its IC50 came to 417

* * *

assay: Glutathione reactivity at 1 mM in presence of 1 mM glutathione containing PBS and 1 mM EDTA buffer at pH 7.4 assessed as remaining GSH level after 10 seconds by spectrophotometry by Ellman's method
recordedEndpoint: Activity (%)
// units = %; emit number, no label

Kindly note the recorded Activity for CC1=CC(=O)C=CC1=O , which is 35

Kindly note the recorded Activity for CC(=O)Oc1cccc2c1C(=O)C=CC2=O , which is 51

Kindly note the recorded Activity for COC1=CC(=O)C=C(OC)C1=O , which is 45

Kindly note the recorded Activity for O=C1C=CC(=O)c2c(OCc3ccccc3)cccc21 , which is 57

* * *

target: Botulinum neurotoxin type A (Clostridium botulinum) (UniProt P0DPI0); test: Inhibition of recombinant Clostridium botulinum neurotoxin serotype A light chain assessed as Kinact to KI ratio at 50 uM after 1.5 hrs by SNAPtide FRET based assay
recordedEndpoint: Ratio (M⁻¹ s⁻¹)
// units = M⁻¹ s⁻¹; emit number, no label

Observe how each entry below is paired with its result.
| recordSmiles | measuredResult |
| --- | --- |
| CC(=O)Oc1cccc2c1C(=O)C=CC2=O | 4 |
| O=C1C=CC(=O)C(Nc2cccc(C(=O)NCc3ccc(Oc4ccccc4)cc3)n2)=C1 | 1.7 |
| C[C@]12CC[C@@H]3c4ccc(C5=CC(=O)C=CC5=O)cc4CC[C@H]3[C@@H]1CCC2=O | 3.9 |
| O=C1C=C(Cl)C(=O)C=C1Cl | 84 |

Kindly note the recorded Ratio for Cc1ccc(C2=CC(=O)c3ccccc3C2=O)cc1 , which is 0.91

Kindly note the recorded Ratio for CC1=CC(=O)C=CC1=O , which is 2.5

Kindly note the recorded Ratio for O=C1C=CC(=O)C(CCC(=O)O)=C1 , which is 1.2

Kindly note the recorded Ratio for O=C1C=CC(=O)c2c(O)ccc(O)c21 , which is 2.2

Kindly note the recorded Ratio for O=C1C=CC(=O)c2cc(O)ccc21 , which is 0.94

Kindly note the recorded Ratio for O=C1C=CC(=O)C(CC(=O)O)=C1 , which is 0.56

* * *

assay: Glutathione reactivity at 1 mM in presence of 1 mM glutathione containing PBS and 1 mM EDTA buffer at pH 7.4 assessed as remaining GSH level after 10 seconds by spectrophotometry by Ellman's method
# Activity annotations

Observe how each entry below is paired with its result.
| recordSmiles | Activity |
| --- | --- |
| COC1=C(c2ccc(C)cc2)C(=O)C=CC1=O | 25% |
| COc1cccc2c1C(=O)C=CC2=O | 80% |

Could you now consider this next compound?
Kindly note the recorded Activity for O=C1C=CC(=O)C(c2ccccc2)=C1 , which is 21%
